Values compiled from patent EP4768499A1.

Test: Metabolic stability test: liver microsomal stability assay
Format: in vitro ADME, mouse
Settings: male, pH 7.4; mouse liver microsomes 0.5 mg protein/mL, compound 1 µM, presence of NADPH; read-out: Mouse Hepatic Microsome CLh,int NADPH(+)
Starred links: 1 amine or outer side, 2 acyl side, 3 side chain; linkers in the order of their positions; H or OH if unused. Positions of bridges follow the written chain, without caps; N, C: chain ends. Non-standard residues stand in square brackets, D forms with d. Residues, ends and D or L forms follow the SMILES beside them. *: point of attachment. NMedβ3hAla = C[C@H](CC(=O)[*:2])N(C)[*:1]; NMeF = CN[C@@H](Cc1ccccc1)C(=O)O; NMeGABA = CN(CCCC(=O)[*:2])[*:1]; NMeI = CC[C@H](C)[C@H](NC)C(=O)O; hPhe = N[C@@H](CCc1ccccc1)C(=O)O; NMeβAla = CN(CCC(=O)[*:2])[*:1]; NMeD = CN[C@@H](CC(=O)O)C(=O)O; NMeL = CN[C@@H](CC(C)C)C(=O)O; dNMeV = CN[C@@H](C(=O)O)C(C)C; NMeV = CN[C@H](C(=O)O)C(C)C; d(β3hA) = C[C@@H](N)CC(=O)O; NMeAbu = CC[C@H](NC)C(=O)O; NMeA = CN[C@@H](C)C(=O)O; Piperidide = C1CCN(*)CC1; Abu = CC[C@H](N)C(=O)O; Sar = CNCC(=O)O; tBu = CC(C)(C)*

compound | microsomal CLint at 1 µM [µL/min/mg]
CC[C@H](C)[C@H]1C(=O)N[C@@H](CC(C)C)C(=O)N(C)[C@@H](CC(C)C)C(=O)N(C)[C@@H](C(C)C)C(=O)N(C)[C@@H](C)C(=O)N[C@@H]([C@@H](C)O)C(=O)N(C)[C@@H](CC(C)C)C(=O)N[C@H](C)CC(=O)N(C)CCC(=O)N[C@@H](CCc2ccccc2)C(=O)N(C)[C@@H](CC(C)C)C(=O)N2CCC[C@H]2C(=O)N(C)[C@@H](Cc2ccccc2)C(=O)N(C)[C@@H](C)C(=O)N1C [pd060] (cyclo(L[NMeL][NMeV][NMeA]T[NMeL][d(β3hA)][NMeβAla][hPhe][NMeL]P[NMeF][NMeA][NMeI])) | 32.4
CC[C@@H]1NC(=O)[C@H](C(C)C)N(C)C(=O)[C@H](CC(C)C)NC(=O)[C@H](Cc2ccccc2)N(C)C(=O)[C@@H](C(C)C)N(C)C(=O)C[C@@H](C(=O)N2CCCCC2)NC(=O)[C@H](CC(C)C)NC(=O)[C@H](C(C)C)N(C)C(=O)[C@H](Cc2ccccc2)N(C)C(=O)[C@H](CC(C)C)NC(=O)[C@H](CC(C)C)N(C)C(=O)[C@H](C)N(C)C(=O)[C@H]([C@@H](C)O)NC(=O)[C@H](CC(C)C)N(C)C1=O [pd033] ([dNMeV][NMeF]L[NMeV][Abu][NMeL]T[NMeA][NMeL]L[NMeF][NMeV]LD-Piperidide; lactam N-14) | 47.8
CC[C@H](C)[C@H]1C(=O)N[C@@H](Cc2ccccc2)C(=O)N2CCC[C@H]2C(=O)N(C)[C@@H](CC(C)C)C(=O)N[C@@H](COC(C)(C)C)C(=O)N(C)[C@@H](Cc2ccccc2)C(=O)N[C@@H]([C@@H](C)O)C(=O)N(C)[C@@H](CC)C(=O)N2CCC[C@H]2C(=O)N(C)[C@@H](CC(C)C)C(=O)N[C@@H](C(C)C)C(=O)N[C@H](C(=O)N2CCCCC2)CC(=O)N(C)CCCC(=O)N(C)[C@@H](CC(C)C)C(=O)N1C [pd042] ([NMeGABA][NMeL][NMeI]FP[NMeL]S(tBu)[NMeF]T[NMeAbu]P[NMeL]VD-Piperidide; lactam N-14) | 32.3
CC[C@@H]1NC(=O)[C@H](CC(C)C)N(C)C(=O)[C@H]([C@@H](C)O)NC(=O)[C@H](C(C)C)N(C)C(=O)[C@H](C)NC(=O)[C@H](Cc2ccccc2)N(C)C(=O)[C@@H](C(C)C)NC(=O)C[C@@H](C(=O)N2CCCCC2)N(C)C(=O)CN(C)C(=O)[C@H](Cc2ccccc2)N(C)C(=O)[C@H](C)N(C)C(=O)[C@H](COC(C)(C)C)NC(=O)[C@H](CC(C)C)N(C)C(=O)CN(C)C1=O [pd090] ([dV][NMeF]A[NMeV]T[NMeL][Abu][Sar][NMeL]S(tBu)[NMeA][NMeF][Sar][NMeD]-Piperidide; lactam N-14) | 45
CC[C@@H]1NC(=O)[C@@H]2CCCN2C(=O)[C@H](CC(C)C)N(C)C(=O)[C@H](C(C)C)NC(=O)[C@H](CC(C)C)N(C)C(=O)[C@H]([C@@H](C)O)NC(=O)[C@H](Cc2ccccc2)N(C)C(=O)CN(C)C(=O)C[C@@H](C)N(C)C(=O)[C@H](C(C)C)NC(=O)[C@H](COC(C)(C)C)NC(=O)[C@H](C)N(C)C(=O)[C@H](CC(C)C)NC(=O)[C@H](Cc2ccccc2)N(C)C1=O [pd067] (cyclo([Abu][NMeF]L[NMeA]S(tBu)V[NMedβ3hAla][Sar][NMeF]T[NMeL]V[NMeL]P)) | 17
CC[C@@H]1NC(=O)[C@H](CC(C)C)N(C)C(=O)[C@H]([C@@H](C)CC)NC(=O)CN(C)C(=O)C[C@@H](C)NC(=O)[C@H](C(C)C)N(C)C(=O)[C@H](COC(C)(C)C)NC(=O)[C@H](CC(C)C)N(C)C(=O)[C@H](Cc2ccccc2)N(C)C(=O)[C@H](CC(C)C)NC(=O)CN(C)C(=O)[C@H]([C@@H](C)O)NC(=O)[C@H](CC(C)C)N(C)C1=O [pd129] (cyclo([Abu][NMeL]T[Sar]L[NMeF][NMeL]S(tBu)[NMeV][d(β3hA)][Sar]I[NMeL])) | 76.5
CC[C@@H]1NC(=O)[C@H](CC(C)C)N(C)C(=O)[C@H](COC(C)(C)C)NC(=O)[C@H]([C@@H](C)CC)N(C)C(=O)[C@H](CCc2ccccc2)NC(=O)[C@H](Cc2ccccc2)N(C)C(=O)[C@H]([C@@H](C)CC)NC(=O)[C@H](CC(C)C)N(C)C(=O)[C@H](CC(C)C)N(C)C(=O)CCN(C)C(=O)C[C@@H](C)N(C)C(=O)CN(C)C(=O)[C@H](CC(C)C)N(C)C(=O)[C@@H]2CCCN2C1=O [pd066] (cyclo([Abu]P[NMeL][Sar][NMedβ3hAla][NMeβAla][NMeL][NMeL]I[NMeF][hPhe][NMeI]S(tBu)[NMeL])) | 38.9
CC[C@@H]1NC(=O)[C@H](CC(C)C)N(C)C(=O)[C@H](COC(C)(C)C)NC(=O)[C@H](Cc2ccccc2)N(C)C(=O)[C@H](CC)NC(=O)[C@H](Cc2ccccc2)N(C)C(=O)[C@H](C)N(C)C(=O)[C@H](CC(C)C)N(C)C(=O)[C@H](CC(C)C)NC(=O)CCCN(C)C(=O)C[C@@H](C(=O)N2CCCCC2)NC(=O)[C@H](CC(C)C)N(C)C(=O)[C@H](C(C)C)NC(=O)[C@H](C)N(C)C1=O [pd016] ([NMeGABA]L[NMeL][NMeA][NMeF][Abu][NMeF]S(tBu)[NMeL][Abu][NMeA]V[NMeL]D-Piperidide; lactam N-14) | 49.9

* * *

Assay: Mouse PK test: plasma concentration after intravenous or oral administration
Format: in vivo, mice (C57BL/6J)
Conditions: C57BL/6J, plasma, male mice, oral 50 mg/kg vs intravenous 1 mg/kg, bioavailability, read-out: F
Non-standard residues stand in square brackets, D forms with d. Residues, ends and D or L forms follow the SMILES beside them. *: point of attachment. NMeF = CN[C@@H](Cc1ccccc1)C(=O)O; NMeT = CN[C@H](C(=O)O)[C@@H](C)O; NMeL = CN[C@@H](CC(C)C)C(=O)O; NMeV = CN[C@H](C(=O)O)C(C)C; d(β3hA) = C[C@@H](N)CC(=O)O; NMeAbu = CC[C@H](NC)C(=O)O; Abu = CC[C@H](N)C(=O)O; tBu = CC(C)(C)*

molecule | bioavailability [%]
CC[C@@H]1NC(=O)[C@H](CC(C)C)N(C)C(=O)[C@H]([C@@H](C)CC)NC(=O)[C@H](CC(C)C)N(C)C(=O)C[C@@H](C)NC(=O)[C@H](C(C)C)N(C)C(=O)[C@H](CC(C)C)NC(=O)[C@H](CC)N(C)C(=O)[C@H](Cc2ccccc2)N(C)C(=O)[C@@H]2CCCN2C(=O)[C@H](CC(C)C)NC(=O)[C@H]([C@@H](C)O)N(C)C(=O)[C@H](CC(C)C)N(C)C1=O [pd135] (cyclo([Abu][NMeL][NMeT]LP[NMeF][NMeAbu]L[NMeV][d(β3hA)][NMeL]I[NMeL])) | 16
CC[C@H](C)[C@@H]1NC(=O)[C@H](CC(C)C)N(C)C(=O)C[C@@H](C)NC(=O)[C@H](C(C)C)N(C)C(=O)[C@H](COC(C)(C)C)NC(=O)[C@H](CC)N(C)C(=O)[C@H](Cc2ccccc2)N(C)C(=O)[C@H](CC(C)C)NC(=O)[C@@H]2CCCN2C(=O)[C@H]([C@@H](C)O)N(C)C(=O)[C@H](CC(C)C)N(C)C(=O)[C@H](CC)N(C)C(=O)[C@H](C(C)C)NC(=O)[C@H](CC(C)C)N(C)C1=O [pd057] (cyclo(I[NMeL]V[NMeAbu][NMeL][NMeT]PL[NMeF][NMeAbu]S(tBu)[NMeV][d(β3hA)][NMeL])) | 33
